Source of measurements: PubChem BioAssay

assay.method.text: PSAC antagonists in infected red cells, primary screen, cell-based, P. falciparum Indochina, OD700, 18 h (AID 1157)
experimental.conditions: P. falciparum Indochina infected erythrocytes, osmotic lysis OD700, 18 h; higher = more signal, called active from +8 up or from −8 down
quantity.name: z-score
The answer should be a number; do not append a unit.

molecule | z-score
NC(=O)[C@@H]1[C@H]2C(=O)O[C@H](c3ccccc3)[C@H](c3ccccc3)N2[C@H](c2ccc(O)cc2)[C@@]12C(=O)Nc1ccc(C#CC3(O)CCCCCC3)cc12 | 0.812
O=C1O[C@H](c2ccccc2)[C@H](c2ccccc2)N2[C@H]1[C@@H](C(=O)NC[C@H](O)c1ccccc1)[C@]1(C(=O)Nc3ccccc31)[C@H]2c1ccc(OCCO)cc1 | 1.47
COCCOC(=O)N1C(=O)[C@@]2(c3cc(C#CCCO)ccc31)[C@H](c1ccc(OCCO)cc1)N1[C@H](c3ccccc3)[C@H](c3ccccc3)OC(=O)[C@H]1[C@@H]2C(=O)N1CCN(c2ncccn2)CC1 | 0.411
C=C(C)C1C(=C)CN([C@H](CO)c2ccccc2)C1=O (some centres not stated) | -0.0396
CN1C2C=C(CCCO)C(C3C(=O)N(C(N)=O)C(=O)C32)C1c1ccc(CN2CCCC2)cc1 (configuration not stated) | -0.11
CC(C)(C)C(=O)N[C@@H](c1ccc(Cl)cc1)[C@]1(C)C[C@H]1C1CCCCC1 | 0.887
C=CCOC(=O)[C@@H]1[C@H]2C(=O)O[C@H](c3ccccc3)[C@H](c3ccccc3)N2[C@H](c2ccc(OCCOC(=O)[C@@H]3C[C@@H]4C(=O)N[C@@H](CCCCN(C)C)C(=O)N4[C@@H]3c3ccc(O)cc3)cc2)[C@@]12C(=O)Nc1ccc(I)cc12 | 0.374
C=CCNC(=O)[C@@H]1[C@H]2C(=O)O[C@H](c3ccccc3)[C@H](c3ccccc3)N2[C@H](c2ccc(OCCO)cc2)[C@@]12C(=O)Nc1ccc(C#CCCO)cc12 | 0.812

-- ask Give z-score for the following molecule: `O=C1NCC(=O)N2[C@@H]1C[C@@H](C(=O)O)[C@H]2c1cccc(OCCO)c1`
-- reply 0.572

-- ask # return recorded z-score for entry `C=CCOC(=O)[C@H]1[C@@H]2C(=O)O[C@@H](c3ccccc3)[C@@H](c3ccccc3)N2[C@@H](c2ccc(OCCOC(=O)[C@H]3C[C@H]4C(=O)N[C@@H](CC(C)C)C(=O)N4[C@H]3c3ccc(O)cc3)cc2)[C@]12C(=O)Nc1ccc(I)cc12`
-- reply 0.47
